# target: VEGFR-2 (Homo sapiens (Human))
# measurement-description: Kinase profiling, IC50
# Assay type: biochemical
# details: read-out: Inhibitory activity (IC50, nM), VEGFR-2
# Method: [The source words this procedure for another target and reports this target under the same test.] The compounds prepared in Examples were tested for inhibitory activities against three subtypes of RAF, i.e. RAF1 Y340D Y341D, BRAF normal type and BRAF V600E, using Kinase Profiling Service (Invitrogen) according to the manufacturer's instructions. The levels of the inhibitory activities of the compounds against the enzymes were calculated as % inhibitory activities at various concentrations. […]
measured-attribute: IC50 (nM)
Give bare numbers, in nM.

Item: "Cc1ccc(NC(=O)c2cccc(C(F)(F)F)c2)cc1NC(=O)c1cccc2c(N)nccc12" | System: VEGFR-2 (Homo sapiens (Human)) | IC50: 261

----------
# target: B-Raf (V600E) (Homo sapiens (Human), UniProt P15056, V600E)
# measurement-description: Kinase profiling, IC50
# Assay type: biochemical
# details: read-out: Inhibitory activity (IC50, nM), B-Raf (V600E)
measured-attribute: IC50 (nM)
One number for each entry, in nM.

Item: Cc1ccc(NC(=O)c2cccc(C(F)(F)F)c2)cc1NC(=O)c1cccc2c(N)nccc12 [Example 1] | System: B-Raf (V600E) (Homo sapiens (Human), UniProt P15056, V600E) | IC50: 61

----------
# target: C-Raf (Homo sapiens (Human), UniProt P04049, Y340D/Y341D)
# Sequence (P04049 whole entry Y340D/Y341D): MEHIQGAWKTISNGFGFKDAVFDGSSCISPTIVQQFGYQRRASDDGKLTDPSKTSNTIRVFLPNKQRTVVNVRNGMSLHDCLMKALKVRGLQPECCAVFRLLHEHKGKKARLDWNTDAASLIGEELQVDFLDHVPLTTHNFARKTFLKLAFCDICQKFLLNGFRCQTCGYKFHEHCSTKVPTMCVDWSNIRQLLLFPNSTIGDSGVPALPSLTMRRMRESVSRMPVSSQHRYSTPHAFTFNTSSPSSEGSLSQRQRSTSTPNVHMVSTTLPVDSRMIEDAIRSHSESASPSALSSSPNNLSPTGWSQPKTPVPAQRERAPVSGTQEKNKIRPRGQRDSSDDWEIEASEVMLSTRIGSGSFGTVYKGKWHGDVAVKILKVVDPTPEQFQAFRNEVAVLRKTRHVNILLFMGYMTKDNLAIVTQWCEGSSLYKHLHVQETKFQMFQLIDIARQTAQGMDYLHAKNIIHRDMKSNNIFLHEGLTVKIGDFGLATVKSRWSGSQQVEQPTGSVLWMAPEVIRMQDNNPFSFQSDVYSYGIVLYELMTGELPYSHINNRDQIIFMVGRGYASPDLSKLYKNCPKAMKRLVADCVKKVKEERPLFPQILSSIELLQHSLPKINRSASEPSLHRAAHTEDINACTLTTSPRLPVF
# measurement-description: Inhibitory activity against C-Raf kinase (Invitrogen Kinase Profiling Service)
# Experimental: The compounds prepared in Examples were tested for inhibitory activities against three subtypes of RAF, i.e. RAF1 Y340D Y341D, BRAF normal type and BRAF V600E, using Kinase Profiling Service (Invitrogen) according to the manufacturer's instructions. The levels of the inhibitory activities of the compounds against the enzymes were calculated as % inhibitory activities at various concentrations. […]
measured-attribute: pIC50
Give bare numbers, as −log10 of the molar value.

compound: Cc1ccc(NC(=O)Nc2cccc(C(F)(F)F)c2)cc1NC(=O)c1cccc2c(N)nccc12 [Example 14]
pIC50: 6.97
--
compound: Cc1ccc(C(=O)Nc2ccccc2)cc1NC(=O)c1cccc2c(NC(C)(C)C)nccc12 [Example 8]
pIC50: 7.69
--
compound: Cc1ccc(C(=O)Nc2cccc(C(F)(F)F)c2)cc1NC(=O)c1cccc2c(NC(C)(C)C)nccc12 [Example 2]
pIC50: 7.96
--
compound: Cc1ccc(C(=O)Nc2ccc(Cl)c(C(F)(F)F)c2)cc1NC(=O)c1cccc2c(N)nccc12 [Example 4]
pIC50: 7.97
--
compound: Cc1ccc(C(=O)Nc2cccc(C(F)(F)F)c2)cc1NC(=O)c1cccc2c(N)nccc12 [Example 3]
pIC50: 8.55

// input: 3 compounds below; output: pIC50 for each
1. Cc1cn(-c2cc(NC(=O)c3ccc(C)c(NC(=O)c4cccc5c(N)nccc45)c3)cc(C(F)(F)F)c2)cn1 [Example 11]
2. CCN1CCN(Cc2ccc(NC(=O)c3ccc(C)c(NC(=O)c4cccc5c(NC(C)(C)C)nccc45)c3)cc2C(F)(F)F)CC1 [Example 6]
3. Cc1ccc(NC(=O)c2cccc(C(F)(F)F)c2)cc1NC(=O)c1cccc2c(N)nccc12 [Example 1]

7.02
8.19
8.21

----------
# target: Abl (Homo sapiens (Human), UniProt P00519)
# Sequence (P00519 whole entry): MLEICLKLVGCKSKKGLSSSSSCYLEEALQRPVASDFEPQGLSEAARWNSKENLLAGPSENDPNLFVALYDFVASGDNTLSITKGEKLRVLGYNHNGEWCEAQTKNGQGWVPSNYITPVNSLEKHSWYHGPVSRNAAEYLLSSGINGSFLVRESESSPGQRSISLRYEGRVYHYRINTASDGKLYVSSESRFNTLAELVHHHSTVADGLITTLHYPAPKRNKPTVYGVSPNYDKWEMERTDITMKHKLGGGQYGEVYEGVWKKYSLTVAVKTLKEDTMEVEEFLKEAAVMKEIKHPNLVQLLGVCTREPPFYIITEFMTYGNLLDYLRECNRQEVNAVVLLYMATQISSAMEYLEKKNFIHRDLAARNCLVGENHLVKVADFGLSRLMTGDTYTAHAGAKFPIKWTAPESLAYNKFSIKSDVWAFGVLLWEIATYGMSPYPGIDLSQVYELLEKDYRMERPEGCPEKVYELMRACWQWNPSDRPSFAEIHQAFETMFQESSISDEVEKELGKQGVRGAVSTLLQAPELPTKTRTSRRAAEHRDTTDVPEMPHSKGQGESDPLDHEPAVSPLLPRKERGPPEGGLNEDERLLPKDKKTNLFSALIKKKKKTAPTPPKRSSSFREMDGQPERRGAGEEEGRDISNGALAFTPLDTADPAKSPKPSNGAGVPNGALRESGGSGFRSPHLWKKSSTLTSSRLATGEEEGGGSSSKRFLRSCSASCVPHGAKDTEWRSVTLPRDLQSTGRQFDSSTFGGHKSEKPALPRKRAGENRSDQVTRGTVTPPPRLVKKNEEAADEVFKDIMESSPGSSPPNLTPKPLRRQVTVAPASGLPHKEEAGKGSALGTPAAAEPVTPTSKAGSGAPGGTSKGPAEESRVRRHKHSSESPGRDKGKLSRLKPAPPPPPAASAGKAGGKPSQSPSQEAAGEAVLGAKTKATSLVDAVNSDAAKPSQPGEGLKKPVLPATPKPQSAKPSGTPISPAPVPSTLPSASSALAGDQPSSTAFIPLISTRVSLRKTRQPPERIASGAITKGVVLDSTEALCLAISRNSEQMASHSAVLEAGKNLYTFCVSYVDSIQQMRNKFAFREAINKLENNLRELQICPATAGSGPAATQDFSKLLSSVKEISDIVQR
# measurement-description: Kinase profiling, IC50
# Assay type: biochemical
# details: read-out: Inhibitory activity (IC50, nM), Abl
measured-attribute: IC50

Kindly note the recorded IC50 for "Cc1ccc(NC(=O)c2cccc(C(F)(F)F)c2)cc1NC(=O)c1cccc2c(N)nccc12" , which is > 2500 nM

----------
# target: PDGFR-α (Homo sapiens (Human), UniProt P16234)
# measurement-description: Kinase profiling, IC50
# Type: biochemical
# details: read-out: Inhibitory activity (IC50, nM), PDGFR-α
measured-attribute: IC50 (nM)
Give bare numbers, in nM.

Kindly note the recorded IC50 for Cc1ccc(NC(=O)c2cccc(C(F)(F)F)c2)cc1NC(=O)c1cccc2c(N)nccc12 [Example 1] , which is 393

----------
# target: FGFR-2 (Homo sapiens (Human), UniProt P21802)
# Sequence (P21802 22-821): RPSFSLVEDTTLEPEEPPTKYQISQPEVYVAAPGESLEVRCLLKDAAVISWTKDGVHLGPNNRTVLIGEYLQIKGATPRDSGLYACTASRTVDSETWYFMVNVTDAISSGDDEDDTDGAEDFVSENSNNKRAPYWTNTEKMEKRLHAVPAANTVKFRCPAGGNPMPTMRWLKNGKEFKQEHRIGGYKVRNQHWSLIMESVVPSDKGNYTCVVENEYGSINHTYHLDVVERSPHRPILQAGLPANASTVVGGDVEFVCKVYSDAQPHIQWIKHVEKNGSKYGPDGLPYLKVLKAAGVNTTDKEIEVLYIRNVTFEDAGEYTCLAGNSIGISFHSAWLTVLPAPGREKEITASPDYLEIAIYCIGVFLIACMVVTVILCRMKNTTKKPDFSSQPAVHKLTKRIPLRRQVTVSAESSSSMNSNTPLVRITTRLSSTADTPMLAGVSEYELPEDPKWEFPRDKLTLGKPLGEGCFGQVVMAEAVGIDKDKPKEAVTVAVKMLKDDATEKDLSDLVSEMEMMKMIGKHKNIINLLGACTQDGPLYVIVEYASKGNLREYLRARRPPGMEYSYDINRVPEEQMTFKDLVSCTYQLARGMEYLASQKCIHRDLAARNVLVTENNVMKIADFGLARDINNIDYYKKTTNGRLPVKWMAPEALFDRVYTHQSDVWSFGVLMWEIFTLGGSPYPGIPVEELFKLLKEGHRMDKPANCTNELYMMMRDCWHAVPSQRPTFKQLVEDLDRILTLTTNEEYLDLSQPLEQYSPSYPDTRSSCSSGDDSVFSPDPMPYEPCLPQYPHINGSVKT
# measurement-description: Kinase profiling, IC50
# Type: biochemical
# details: read-out: Inhibitory activity (IC50, nM), FGFR-2
measured-attribute: IC50

Kindly note the recorded IC50 for "Cc1ccc(NC(=O)c2cccc(C(F)(F)F)c2)cc1NC(=O)c1cccc2c(N)nccc12" , which is > 2500 nM

----------
# target: B-Raf (WT) (Homo sapiens (Human))
# measurement-description: Kinase profiling, IC50
# Format: biochemical
# details: read-out: Inhibitory activity (IC50, nM), B-Raf (WT)
measured-attribute: IC50
A complete answer gives the number followed by the unit.

Kindly note the recorded IC50 for "Cc1ccc(NC(=O)c2cccc(C(F)(F)F)c2)cc1NC(=O)c1cccc2c(N)nccc12" , which is 87 nM

----------
# target: EGFR (Homo sapiens (Human))
# measurement-description: Kinase profiling, IC50
# Format: biochemical
# details: read-out: Inhibitory activity (IC50, nM), EGFR
measured-attribute: IC50

Kindly note the recorded IC50 for "Cc1ccc(NC(=O)c2cccc(C(F)(F)F)c2)cc1NC(=O)c1cccc2c(N)nccc12" , which is > 2500 nM

----------
# target: FGFR-1 (Homo sapiens (Human))
# Sequence (P11362 22-822): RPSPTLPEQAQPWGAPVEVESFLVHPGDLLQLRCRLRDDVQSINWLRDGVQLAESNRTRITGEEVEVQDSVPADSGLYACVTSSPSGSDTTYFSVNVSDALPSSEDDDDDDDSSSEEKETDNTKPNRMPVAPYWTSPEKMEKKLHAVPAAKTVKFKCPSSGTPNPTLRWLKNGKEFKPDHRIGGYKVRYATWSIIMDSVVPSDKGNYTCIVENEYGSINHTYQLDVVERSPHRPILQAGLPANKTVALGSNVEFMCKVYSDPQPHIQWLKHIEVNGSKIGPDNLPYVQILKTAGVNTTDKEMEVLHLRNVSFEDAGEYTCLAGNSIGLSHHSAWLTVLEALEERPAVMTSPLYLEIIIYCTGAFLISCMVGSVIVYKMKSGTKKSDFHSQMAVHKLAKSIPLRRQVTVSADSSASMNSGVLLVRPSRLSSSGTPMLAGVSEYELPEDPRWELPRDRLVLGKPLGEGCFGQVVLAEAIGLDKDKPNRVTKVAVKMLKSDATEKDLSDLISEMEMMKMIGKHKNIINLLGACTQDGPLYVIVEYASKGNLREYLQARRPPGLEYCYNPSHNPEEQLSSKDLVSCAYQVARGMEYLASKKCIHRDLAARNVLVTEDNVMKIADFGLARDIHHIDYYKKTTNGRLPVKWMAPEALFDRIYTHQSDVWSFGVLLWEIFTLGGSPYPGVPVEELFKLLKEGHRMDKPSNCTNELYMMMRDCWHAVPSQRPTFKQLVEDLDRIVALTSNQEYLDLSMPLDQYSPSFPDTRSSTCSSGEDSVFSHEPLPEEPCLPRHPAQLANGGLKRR
# measurement-description: Kinase profiling, IC50
# Type: biochemical
# details: read-out: Inhibitory activity (IC50, nM), FGFR-1
measured-attribute: IC50

Kindly note the recorded IC50 for Cc1ccc(NC(=O)c2cccc(C(F)(F)F)c2)cc1NC(=O)c1cccc2c(N)nccc12 [Example 1] , which is > 2500 nM

----------
# target: IGF-1R (Homo sapiens (Human), UniProt P08069)
# Sequence (P08069 31-1367): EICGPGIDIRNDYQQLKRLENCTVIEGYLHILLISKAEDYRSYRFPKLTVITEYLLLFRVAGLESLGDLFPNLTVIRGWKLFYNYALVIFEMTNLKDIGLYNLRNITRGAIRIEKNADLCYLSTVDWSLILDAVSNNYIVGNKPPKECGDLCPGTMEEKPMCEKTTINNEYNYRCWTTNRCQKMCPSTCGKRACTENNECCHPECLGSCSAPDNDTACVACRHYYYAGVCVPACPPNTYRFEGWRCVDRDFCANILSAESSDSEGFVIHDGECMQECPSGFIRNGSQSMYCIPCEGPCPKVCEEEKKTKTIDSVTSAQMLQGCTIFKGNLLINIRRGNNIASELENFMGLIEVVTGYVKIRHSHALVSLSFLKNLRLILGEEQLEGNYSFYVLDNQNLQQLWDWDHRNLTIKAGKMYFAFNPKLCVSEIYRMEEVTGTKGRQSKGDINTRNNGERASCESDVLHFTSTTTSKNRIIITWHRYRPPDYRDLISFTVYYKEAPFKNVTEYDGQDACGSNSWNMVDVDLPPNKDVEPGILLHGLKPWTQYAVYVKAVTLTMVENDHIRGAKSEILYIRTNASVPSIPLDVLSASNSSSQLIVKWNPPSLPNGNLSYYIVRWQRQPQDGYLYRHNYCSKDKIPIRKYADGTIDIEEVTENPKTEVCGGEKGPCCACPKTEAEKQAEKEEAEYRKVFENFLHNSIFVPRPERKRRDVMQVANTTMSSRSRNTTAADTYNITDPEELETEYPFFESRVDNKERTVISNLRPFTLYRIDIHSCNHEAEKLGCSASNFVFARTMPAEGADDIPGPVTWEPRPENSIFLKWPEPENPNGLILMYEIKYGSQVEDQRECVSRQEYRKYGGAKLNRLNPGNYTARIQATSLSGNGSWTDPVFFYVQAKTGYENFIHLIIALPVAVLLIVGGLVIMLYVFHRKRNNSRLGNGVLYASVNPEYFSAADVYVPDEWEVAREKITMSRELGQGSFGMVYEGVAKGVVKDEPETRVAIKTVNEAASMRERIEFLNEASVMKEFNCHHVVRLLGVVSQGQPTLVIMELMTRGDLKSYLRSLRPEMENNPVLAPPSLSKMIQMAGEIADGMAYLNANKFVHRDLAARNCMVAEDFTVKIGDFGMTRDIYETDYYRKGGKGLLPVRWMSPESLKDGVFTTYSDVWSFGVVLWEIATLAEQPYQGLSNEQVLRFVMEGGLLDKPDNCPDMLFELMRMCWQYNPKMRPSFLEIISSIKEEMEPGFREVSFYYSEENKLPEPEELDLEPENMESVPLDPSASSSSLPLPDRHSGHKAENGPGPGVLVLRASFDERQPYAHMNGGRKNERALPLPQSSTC
# measurement-description: Kinase profiling, IC50
# Assay type: biochemical
# details: read-out: Inhibitory activity (IC50, nM), IGF-1R
measured-attribute: IC50

Kindly note the recorded IC50 for "Cc1ccc(NC(=O)c2cccc(C(F)(F)F)c2)cc1NC(=O)c1cccc2c(N)nccc12" , which is > 2500 nM

----------
# target: Her-2 (Homo sapiens (Human), UniProt P04626)
# measurement-description: Kinase profiling, IC50
# Assay type: biochemical
# details: read-out: Inhibitory activity (IC50, nM), Her-2
measured-attribute: IC50

Kindly note the recorded IC50 for Cc1ccc(NC(=O)c2cccc(C(F)(F)F)c2)cc1NC(=O)c1cccc2c(N)nccc12 [Example 1] , which is > 2500 nM
